# System: B16F10-Cas9 cells pulsed with SIINFEKL peptide, co-cultured with OT-I T cells
# test_summary: Genome-scale CRISPR-Cas9 screen, selection with OT-I T cells
# Format: cell-based, mouse
# protocol_conditions: Table 3; B16F10-Cas9 cells pulsed with SIINFEKL, co-cultured with OT-I T cells 1:1 for one day; negative = depleted, positive = enriched
Lab note: compare OT1 (sgRNA Log(2) fold change, OT-I selection versus control T cells) against -2. Equal or greater, write Yes. Smaller, write No.

Before answering, review these 10 worked examples.
TGGACATGAGCCATATGTTG (chemistry not fully specified) : Yes
TGATGAGCAGATTCTAACTT (chemistry not fully specified) : Yes
CCTGGGCTAGCACATAACCA (chemistry not fully specified) : No
ACATTGATACGCACACTCAC (chemistry not fully specified) : No
GCTCACCACGGGCTGCAACG (chemistry not fully specified) : Yes
GCAAATGTAGAAATGTCGTG (chemistry not fully specified) : No
CACACCCTTACTGCCCGTCG (chemistry not fully specified) : No
TGGACCTCCGAAAAACATCT (chemistry not fully specified) : Yes
GGATAGACGCCCAGCCACTG (chemistry not fully specified) : Yes
GGCCCCGACTCAGACCCGCG (chemistry not fully specified) : Yes

Prompt line: OT1 (sgRNA Log(2) fold change, OT-I selection versus control T cells) >= -2 for ATCACCTGGAGCATGCAGGA (chemistry not fully specified) ?
Response line: Yes

Prompt line: OT1 (sgRNA Log(2) fold change, OT-I selection versus control T cells) >= -2 for TTACCCCCTACTACACTGGA (chemistry not fully specified) ?
Response line: No

Prompt line: OT1 (sgRNA Log(2) fold change, OT-I selection versus control T cells) >= -2 for CACCGGATCGTCCAATTCCG (chemistry not fully specified) ?
Response line: No

Prompt line: OT1 (sgRNA Log(2) fold change, OT-I selection versus control T cells) >= -2 for AGTTGGATCGCGAATAAAGA (chemistry not fully specified) ?
Response line: No

* * *

# Test system: B16F10-Cas9 cells pulsed with SIINFEKL peptide, co-cultured with OT-I T cells
# test_summary: Genome-scale CRISPR-Cas9 screen, selection with OT-I T cells
# Type: cell-based, mouse
# protocol_conditions: Table 3; B16F10-Cas9 cells pulsed with SIINFEKL, co-cultured with OT-I T cells 1:1 for one day; negative = depleted, positive = enriched
Lab note: compare OT1 (sgRNA Log(2) fold change, OT-I selection versus control T cells) against -2. Equal or greater, write criterion met. Smaller, write criterion not met.

GTATAAGCCATTACGACGCA (chemistry not fully specified) : criterion not met
TGAAGCTAATGACCATGAGC (chemistry not fully specified) : criterion not met
ATACACAACTATGATGCCAT (chemistry not fully specified) : criterion met
CCCACGAATTCGTCACAGGG (chemistry not fully specified) : criterion met

Prompt line: OT1 (sgRNA Log(2) fold change, OT-I selection versus control T cells) >= -2 for AGAAGGCAGGCAGAGTGGTG (chemistry not fully specified) ?
Response line: criterion not met

* * *

Let's look at some sequences and their measured OT1 (sgRNA Log(2) fold change, OT-I selection versus control T cells).
# Tested on: B16F10-Cas9 cells pulsed with SIINFEKL peptide, co-cultured with OT-I T cells
# test_summary: Genome-scale CRISPR-Cas9 screen, selection with OT-I T cells
# Type: cell-based, mouse
# protocol_conditions: Table 3; B16F10-Cas9 cells pulsed with SIINFEKL, co-cultured with OT-I T cells 1:1 for one day; negative = depleted, positive = enriched
Answer field: number only, no words.

Prompt line: # lookup: OT1 (sgRNA Log(2) fold change, OT-I selection versus control T cells) of CAGCAGCAAGTTCACAGGTG (chemistry not fully specified)
Response line: -3.04

Prompt line: # lookup: OT1 (sgRNA Log(2) fold change, OT-I selection versus control T cells) of AAAACGGTCTCAAGCCAATG (chemistry not fully specified)
Response line: -3.05

Prompt line: # lookup: OT1 (sgRNA Log(2) fold change, OT-I selection versus control T cells) of CAGTGTCACAACCCACCGGA (chemistry not fully specified)
Response line: -2.75

Prompt line: # lookup: OT1 (sgRNA Log(2) fold change, OT-I selection versus control T cells) of GTCTCTAGCAAAGTCCACGC (chemistry not fully specified)
Response line: -0.40

Prompt line: # lookup: OT1 (sgRNA Log(2) fold change, OT-I selection versus control T cells) of TTACTGAGGCTCGATTGGGA (chemistry not fully specified)
Response line: -3.59

Data origin, for the record: patent US11820822B2
